# ASSAY_INFO: yeast display, Sf9 membrane polyspecificity reagent, FACS + sequencing; frameworks hold sequencing errors

[
  {
    "BIOPOLYMER_SEQUENCE": "QVQLVESGGGLVQAGGSLRLSCAASGRTFRYNAMGWYRQAPGKERELVASIRYSSASTYYADSVKGRFTISRDNAKNTVYLQMNSLKPEDTAVYYCAASWYPVIVGYDYWGQGTQVTVSS",
    "polyreactivity (PSR sort gate)": "high polyreactivity"
  },
  {
    "BIOPOLYMER_SEQUENCE": "QVQLVESGGGLVQAGGSLRLSCAASGSTFFSYDMGWYRQAPGKERELVATISTSVGRTYYADSVKGRFTISRDNAKNTVYLQMNSLKPEDTAVYYCATVGYLYTPVVVTWWDWGDYWGQGTQVTVSS",
    "polyreactivity (PSR sort gate)": "low polyreactivity"
  },
  {
    "BIOPOLYMER_SEQUENCE": "QVQLVESGGGLVQAGGSLRLALLPPDLPSTLNDMGLYRQAPGKERELVAAITRGGSTNYADSVKGRFTISRDNAKNTVYLQMNSLKPEDTADYYCAAPYAGWRDGGDYWGQGTQVTVSS",
    "polyreactivity (PSR sort gate)": "low polyreactivity"
  },
  {
    "BIOPOLYMER_SEQUENCE": "QVQLVDSGGALVQAGGSLRLSCAASGFIFRDNAMGWYRQAPGKESELVAAISSRGGSTYYADSVKGRFTISRDYAKNSVYLQMNRLKPEDTAVYYCAIRPYKSRVQMDCWGQGTQVTVSS",
    "polyreactivity (PSR sort gate)": "high polyreactivity"
  },
  {
    "BIOPOLYMER_SEQUENCE": "QVQLVESGGGLVQAGGSLRLTCAASGITFGSYAMGWYRQAPGKERELVAAITWRDGSTYYADSVKGRFTISRDNAKNTVYLQMYSLKPEDTAVYYCAAYLGLRYVGDVSDTWRYDYWGQGTQVTVSS",
    "polyreactivity (PSR sort gate)": "low polyreactivity"
  },
  {
    "BIOPOLYMER_SEQUENCE": "QVQLVESGGGLVQAGCSLRLSCAASGGTFYVNAMGCYRQAPGKDRELVAGIRESGASTYYADSVKGRFTISLDNAKNTVYLQMNSLKPEDTAVYYCAVDGPYPAASQSEVGYDYWGQGTQVTVSS",
    "polyreactivity (PSR sort gate)": "low polyreactivity"
  },
  {
    "BIOPOLYMER_SEQUENCE": "QVQLVESGGGLVQAGGSLRLSCAASGGIFLRYSMGWYRQAPGKERELVAAITANGGSTYYADSVKGRFTISRDNAKNTVYLQMISMKPEDTAVYYCNADSFPALNKRGYDYWGQVTQVTVSS",
    "polyreactivity (PSR sort gate)": "low polyreactivity"
  },
  {
    "BIOPOLYMER_SEQUENCE": "QVQLVESGGGLVQAGGSLRLSCAASGITYYNAMGWYRQAAGKERELVARISWSSVSTYYADSVKGRFTISRDNAKNTVYLQMNSLKPEDTAVYYCAAEVRGSDYDYWGQGTQLTVSS",
    "polyreactivity (PSR sort gate)": "high polyreactivity"
  },
  {
    "BIOPOLYMER_SEQUENCE": "QVHLVESGGGLVQAGGSLRLSCAASGSTFAVYAMGWYRQAPWKESELVAGISSRGGRTYYADSVKGRFTISRDNAKNTVYLQMNSLKPEDTAVYYCNVVYTYWRYYRWREYDYWGQGTQVTVSS",
    "polyreactivity (PSR sort gate)": "high polyreactivity"
  },
  {
    "BIOPOLYMER_SEQUENCE": "QVQLVESGGGLVQAAGSLRLSSAPSVSSFRNKAMGWYRQAPGKERELVASISSSGDSTYADSVKGRFTISRDNAKNTVSLQMNSLKPEDTAVYYCARDYLSPYAVDYWGQGTQVTVSS",
    "polyreactivity (PSR sort gate)": "low polyreactivity"
  },
  {
    "BIOPOLYMER_SEQUENCE": "QVQLVESGGGLVQAGGSLRLSCAASGGTFTYYAKGWYRQAPGKERELVAAISWSDTSTYYADSVKGRFTISRDNAKNTVYLQMNSLKPEDTAVYYCAAEFYVRYQADYEYWGQGTQVTVSS",
    "polyreactivity (PSR sort gate)": "high polyreactivity"
  },
  {
    "BIOPOLYMER_SEQUENCE": "QVQLVESGGGLVQAGGSLRLSCAACGSIFLSNSMGWYRQAPGKERELVADIDWTGGDTYYADSVKGRFTISRDNAMNTVYLQMNSLKPEDTAFYYCAADYGYRNLLTEYGYWVQGTQVTVSS",
    "polyreactivity (PSR sort gate)": "low polyreactivity"
  },
  {
    "BIOPOLYMER_SEQUENCE": "QVQLVESGGGLVQAGGSLRLSCAASGIIFYSYTMGWYRQAPGKERELVAAISRNGGGTYYADSEKGRFTISRDNAKNTVYLQMNSLNPEETAVYYCAAEVDQWYYRGYDYWGQGTQVTVSS",
    "polyreactivity (PSR sort gate)": "high polyreactivity"
  },
  {
    "BIOPOLYMER_SEQUENCE": "QVQLVESGGGLVQAGGSLRLSCAASGRTFVTYAMGWYRPAPGKERELVAAITGSGGRTYYADSVKGRFTISRDNAKLTVYLQMNRLKPEDTAVYYCAKDHPSGRQYDYWGQGTQVTVSS",
    "polyreactivity (PSR sort gate)": "high polyreactivity"
  },
  {
    "BIOPOLYMER_SEQUENCE": "QVQLVESGGGLVQAGGSLRLSCAASGSTSVTNAMGWYRQAPGKEREFVATINYSGTSTYYADSVKGRFTISRDNAKNTVYLQMNSLKPEDTAVYYCNAHDFGFYRFSLPGYDYWGQGTQVTVSS",
    "polyreactivity (PSR sort gate)": "low polyreactivity"
  },
  {
    "BIOPOLYMER_SEQUENCE": "QVQLVESGGGLVQAGGSLRLSCAASGFTFPLNARGWYRQAPGKERELVAAITNGGTTYYADSVKGRFTISRDNAKNTVYLQMHSLKPEDTAVYYCAAYTYRYGSFKYGYWGQGTQVTVSS",
    "polyreactivity (PSR sort gate)": "low polyreactivity"
  },
  {
    "BIOPOLYMER_SEQUENCE": "QVQLVESGGGLVQAGGSLRLSCAASGRIFYSYAMAWYRQAPGKERELVAAISSRTGSTYYADSVKGRFTISRDNAKITVYLQMNSLIPEDTAVYYCAARKKYRFDYWGQGTQVTVSS",
    "polyreactivity (PSR sort gate)": "high polyreactivity"
  },
  {
    "BIOPOLYMER_SEQUENCE": "QVQLVESGGGLVQAGGSLRLSCAASGITFYRYAMGWYRQAPGKERELVATITSGGSTYYADSVKGRFTISRDNAKNTVYLQMNSLKPEDTAVYYCAAESVWTWYYTTAGMDYWGQGTQVTVSS",
    "polyreactivity (PSR sort gate)": "high polyreactivity"
  },
  {
    "BIOPOLYMER_SEQUENCE": "QVQLVESGGGLVQAGGSLRLSCAASGRTFGRYTMGWYRQAPGKERELVAAITGRGGSTFYADSVKGRFTISRDYAKNTVYLQMNSLKPEDTAVYYCAARRTSIKDQFYYWGQGTQVTVSS",
    "polyreactivity (PSR sort gate)": "high polyreactivity"
  },
  {
    "BIOPOLYMER_SEQUENCE": "QVQLVESGGALVQAGGSLRLTSAASGFTFFRNAMRWYRQAPGKERELVAAINWSGGSTYYADSVKGRFTISRDNAKNTVYLQMHSLKPEDTAVYFCAADLSSTESDYWRQGTQVTVSS",
    "polyreactivity (PSR sort gate)": "high polyreactivity"
  },
  {
    "BIOPOLYMER_SEQUENCE": "QVQLVESGGGLVQAGGSLRLSCAASGSIFRGYTLGWYRQAPGKERELVAAISTRGGSTYYADSVKGRFTISRDNANNTVYLQMNSLKPEDTAVYYCNARSRGRASGYDYWGQVTQVTVSS",
    "polyreactivity (PSR sort gate)": "high polyreactivity"
  }
]
